- System: Klebsiella aerogenes DSM 30053
- assay procedure: fold change of Histamine concentration vs plate DMSO controls (fold change (ratio)); higher = more amine produced, active = hit call of the paper (significant change in both replicates, either direction);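 for the amine columns active = adjusted P below 0.05 in both replicates with a change the same way and a mean fold change under 0.8 or over 1.25; inactive = the rest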
- stated conditions: incubation time: 27 h, anaerobic, 37 °C
Counter-ions that a name gives are not always drawn.
Possible outcomes: 1.0 = active, 0.0 = inactive

> print(dat)
                                   molecule  category.label
1  CC1CCc2cc(F)cc3c(=O)c(C(=O)O)cn1c23 (stereo not drawn) [Flumequine] (20 µM)             1.0
2  O=C1OC(CN2CCOCC2)CN1/N=C/c1ccc([N+](=O)[O-])o1 (stereo not drawn) [Furaltadone hydrochloride] (20 µM)             0.0
3  CN1CCN(C2Cc3ccccc3Sc3ccc(Cl)cc32)CC1 (stereo not drawn) [Octoclothepin maleate salt] (20 µM)             0.0
4  CCOC(=O)C(C)(C)Oc1ccc(Cl)cc1 [Clofibrate] (20 µM)             0.0
5  Cc1nc2n(c(=O)c1CCN1CCC(c3noc4cc(F)ccc34)CC1)CCCC2 [Risperidone] (20 µM)             0.0
6  CC(C)NCC(O)c1cc(O)cc(O)c1 (stereo not drawn) [Metaproterenol sulfate] (20 µM)             0.0
7  CC(=O)N(CC(O)CO)c1c(I)c(C(=O)NCC(O)CO)c(I)c(C(=O)NCC(O)CO)c1I (stereo not drawn) [Iohexol] (20 µM)             0.0
8  CCCCCCCCCCCCCCCCCCCCCC(=O)Nc1ccn([C@@H]2O[C@H](CO)[C@@H](O)[C@@H]2O)c(=O)n1 [Enocitabine] (20 µM)             0.0
